Reported Relative Volatility is given for each of the following compounds.
assay.details: Vapor-liquid equilibrium still, trichloroethylene-n-butanol azeotrope with extractive distillation agent
Assay type: physicochemical
property: Relative Volatility

OCC1CCCO1 (stereo not drawn) [Tetrahydrofurfuryl alcohol]; 2.2
CN(C)C=O [Dimethylformamide]; 4.5
OC1CCCCC1; 3.5
CC(C)CCCCCCCO; 3.6
COCC(C)OC(C)=O (stereo not drawn) [1-Methoxy-2-propanol acetate]; 1.5
CC(C)COC(=O)C(C)C [Isobutyl isobutyrate]; 1.5

---

assay.details: Vapor-liquid equilibrium still, trichloroethylene-n-butanol azeotrope with extractive distillation agent
Format: physicochemical
condition.description: trichloroethylene from n-butanol, Table 2
property: Relative Volatility

CCCC(C)CO (centres unmarked) [2-Methyl pentanol]; 3.5
O=S1(=O)CCCC1 [Sulfolane]; 2.5
CCCCCCCCCO [n-Nonyl alcohol]; 2.5
CC(C)CC(O)CC(C)C [Diisobutyl carbinol]; 1.4
CC(=O)O[C@@H]1C[C@H]2CC[C@]1(C)C2(C)C (racemic) [Isobornyl acetate]; 1.25
CC(C)CC(C)O (centres unmarked) [Methyl isobutyl carbinol]; 2.4
CCCCC(=O)OCC [Ethyl valerate]; 3.0
CC(=O)c1ccccc1 [Acetophenone]; 1.6
OCc1ccccc1 [Benzyl alcohol]; 3.5
CCCCCC(C)=O [2-Heptanone]; 1.7
CC(=O)CCC(C)C [5-Methyl-2-hexanone]; 1.6
OCCc1ccccc1 [Phenethyl alcohol]; 2.5
C[S+](C)[O-] [Dimethylsulfoxide]; 1.3
CC1=CC(=O)CC(C)(C)C1 [Isophorone]; 1.45
CC(C)CC(=O)CC(C)C [Diisobutyl ketone]; 1.4
CCCCCCCCO [n-Octanol]; 2.3
CCCCCCO [n-Hexyl alcohol]; 3.1
CC(C)CC(=O)CC(C)C [2,6-Dimethyl-4-heptanone]; 1.35
CCCCCCCCCCO [n-Decanol]; 2.4
CC(=O)CCC(C)=O [Acetonylacetone]; 2.6
CCOC(=O)CC(C)C [Ethyl isovalerate]; 1.45
CCCCCC(=O)CC [3-Octanone]; 1.35
CCCCCCC(C)=O [2-Octanone]; 1.4
